# target.or.system: pooled human IgG (human IgG1, 2, 3 and 4) (human); note: test concentration or dose not given here
# protocol: cell-based or functional assay
property: Enzyme Activity Endpoint Assay: Fab′2 (ng/µL)
Give your result in ng/µL as a bare value.

For PRT-419 (enzyme) MTITSVWTKGVTPPTPEDFRYNNEDVLHAPYVANQGWYDITKTFDGKDNLLCGAATAGNMLHWWFDQNKEEIERYLKKHPEKQKIIFNNQELFDVKAAIDTKDSQTNSKLFNYFRDKAFPNLSARQLGVMPDLVLDMFINGYYLNLGKTQSTDVNRPYQDKDKRGGIFDAVFTRGDQTTLLTARHDLKNKGLNEISDLIKQELTEGKALALSHTYANVRINHVINLWGADFDAEGNLIAIYVTDSDANASIGMKKYFVGVNANGKVAISAKKIEGDNIGAQVLGLFTLSTGQDQWQKLS , what is its reported Enzyme Activity Endpoint Assay: Fab′2? 528
